test details: physchem
condition: aqueous solution, pH 6.3, aqueous buffer
observation type: solubility (µg/mL)

INSERT INTO measurements (compound, observation_type, reported_measurement) VALUES
  ('CC(C)CN(C[C@@H](O)[C@H](Cc1ccccc1)NC(=O)O[C@H]1CCOC1)S(=O)(=O)c1ccc(N)cc1 (relative stereo) [amprenavir, reference compound]', 'solubility', 95);

----------
test details: physchem
condition: pH 4.11, aqueous buffer
observation type: solubility (mg/mL)

INSERT INTO results (molecule, reported_measurement) VALUES
  ('CC(C)CN(C[C@@H](OP(=O)([O-])[O-])[C@H](Cc1ccccc1)NC(=O)O[C@H]1CCOC1)S(=O)(=O)c1ccc(N)cc1.[Ca+2] [compound of formula (I)]', 9.41);
